System: UO-31 renal
Experiment: NCI tumour cell line growth inhibition, 48 h; in the data active means GI50 below about 0.43 µM; inactive means the rest
Output constraint: value belongs to active, inactive

Below are worked cases with known answers.
- CC1=C2O[C@]3(O)C=C2C(=C(O)C1=O)[C@@H]1O[C@H](CC[C@H](C)/C=C(\C)C[C@@H](C)C[C@@H]3C)[C@H](C)[C@H](O)[C@H]1C: active
- COc1ccc(CC(C)=C(c2ccc(OCCN3CCCCCC3)cc2)c2ccc(OCCN3CCCCCC3)cc2)cc1: active
- CCN(CC)Cc1cc(Nc2c3ccc(Cl)cc3nc3ccc(OC)cc23)ccc1O: inactive

Below: the item to evaluate.
*Q* Would you mind telling me which call this test gave O=C1C=CC(=O)c2cc3cc(CO)ccc3cc21 ?
*A* inactive
